experiment: DRUGMATRIX: Glutamate, NMDA, Phencyclidine radioligand binding (ligand: [3H] TCP); assay type: cell membranes, Rattus norvegicus, Wistar, Cerebral cortex, Membrane; conditions: Not Active = under 50% inhibition at 10 µM
observable: Ki

Field: example entries. Status: answers known.
molecule | Ki
CC(NC(C)(C)C)C(=O)c1cccc(Cl)c1 (stereo not given) | Not Active
Cc1oncc1C(=O)Nc1ccc(C(F)(F)F)cc1 [LEFLUNOMIDE] | Not Active
O=C1CC[C@@H](N2C(=O)c3ccccc3C2=O)C(=O)N1 | Not Active
N=C(N)NCCN1CCCCCCC1 | Not Active
C[C@](N)(Cc1ccc(O)c(O)c1)C(=O)O | Not Active

[in] Answer with the recorded Ki for the molecule listed here: "CC(=O)[C@@]1(O)CC[C@H]2[C@@H]3C[C@H](C)C4=CC(=O)CC[C@]4(C)[C@H]3CC[C@@]21C"
[out] Not Active

[in] Answer with the recorded Ki for the molecule listed here: "Nc1nc2ccc(OC(F)(F)F)cc2s1"
[out] Not Active

[in] Answer with the recorded Ki for the molecule listed here: "CC(C)(Oc1ccc(Cl)cc1)C(=O)O"
[out] Not Active

[in] Answer with the recorded Ki for the molecule listed here: COc1cc2nc(N3CCN(C(=O)C4COc5ccccc5O4)CC3)nc(N)c2cc1OC (stereo not given)
[out] Not Active

[in] Answer with the recorded Ki for the molecule listed here: "NC[C@H]1CC[C@H](C(=O)O)CC1"
[out] Not Active

[in] Answer with the recorded Ki for the molecule listed here: "CC(C)(C)NC(=O)[C@@H]1C[C@@H]2CCCC[C@@H]2CN1C[C@@H](O)[C@H](Cc1ccccc1)NC(=O)[C@H](CC(N)=O)NC(=O)c1ccc2ccccc2n1"
[out] Not Active

[in] Answer with the recorded Ki for the molecule listed here: "CCCOc1ccccc1-c1nc2nn[nH]c2c(=O)[nH]1"
[out] Not Active

[in] Answer with the recorded Ki for the molecule listed here: "CNCCc1ccccn1"
[out] Not Active

[in] Answer with the recorded Ki for the molecule listed here: C1CCC(C(CC2CCCCN2)C2CCCCC2)CC1 (stereo not given)
[out] Not Active

====

molecular target: Cannabinoid receptor 1 (Homo sapiens); type: cell membranes, Membrane; details: chem-1; further: in other assays of this panel Not Active means under 50% inhibition at 10 µM
Sequence (P21554 whole entry): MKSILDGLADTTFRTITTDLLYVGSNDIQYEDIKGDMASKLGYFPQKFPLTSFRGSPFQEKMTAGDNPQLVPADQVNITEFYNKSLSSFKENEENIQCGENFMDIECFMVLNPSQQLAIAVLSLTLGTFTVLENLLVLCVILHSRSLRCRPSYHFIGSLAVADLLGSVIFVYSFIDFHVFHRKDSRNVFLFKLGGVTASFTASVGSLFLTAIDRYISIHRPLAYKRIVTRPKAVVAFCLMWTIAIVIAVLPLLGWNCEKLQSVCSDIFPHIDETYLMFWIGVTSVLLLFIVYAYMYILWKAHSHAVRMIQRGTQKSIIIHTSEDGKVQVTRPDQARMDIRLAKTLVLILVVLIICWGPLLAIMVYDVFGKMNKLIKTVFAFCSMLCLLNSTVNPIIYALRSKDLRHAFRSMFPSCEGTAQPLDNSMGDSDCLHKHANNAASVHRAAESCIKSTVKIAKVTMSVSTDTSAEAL
observable: IC50

Field: example entries. Status: answers known.
compound | IC50
CC(C)(C)NC(=O)[C@@H]1C[C@@H]2CCCC[C@@H]2CN1C[C@@H](O)[C@H](Cc1ccccc1)NC(=O)[C@H](CC(N)=O)NC(=O)c1ccc2ccccc2n1 | Not Active
CSc1ccc(/C=C2/C(C)=C(CC(=O)O)c3cc(F)ccc32)cc1 [SULINDAC SULFIDE] | Not Active
Cc1c(C)c2c(c(C)c1O)CC[C@@](C)(CCC[C@H](C)CCC[C@H](C)CCCC(C)C)O2 [ALPHA-TOCOPHEROL] | Not Active
N[C@@H]1[C@H]2CN(c3nc4c(cc3F)c(=O)c(C(=O)O)cn4-c3ccc(F)cc3F)C[C@@H]12 [TROVAFLOXACIN] | Not Active
Cc1ccc2cc3c(ccc4ccccc43)c3c2c1CC3 [3-METHYLCHOLANTHRENE] | Not Active
CC(C)C(=O)Nc1ccc([N+](=O)[O-])c(C(F)(F)F)c1 [FLUTAMIDE] | Not Active
O=c1ncn2nc(Sc3ccc(F)cc3F)ccc2c1-c1c(Cl)cccc1Cl [NEFLAMAPIMOD] | Not Active

[in] Answer with the recorded IC50 for the compound listed here: CCOc1ccc(NC(C)=O)cc1 [PHENACETIN]
[out] Not Active
